Every entry's value here was drawn from the kinase profiling compilation of Christmann-Franck et al. (2016).

- System Under Test: ULK2 (human) (UniProt Q8IYT8)
- Sequence (Q8IYT8 whole entry, looked up): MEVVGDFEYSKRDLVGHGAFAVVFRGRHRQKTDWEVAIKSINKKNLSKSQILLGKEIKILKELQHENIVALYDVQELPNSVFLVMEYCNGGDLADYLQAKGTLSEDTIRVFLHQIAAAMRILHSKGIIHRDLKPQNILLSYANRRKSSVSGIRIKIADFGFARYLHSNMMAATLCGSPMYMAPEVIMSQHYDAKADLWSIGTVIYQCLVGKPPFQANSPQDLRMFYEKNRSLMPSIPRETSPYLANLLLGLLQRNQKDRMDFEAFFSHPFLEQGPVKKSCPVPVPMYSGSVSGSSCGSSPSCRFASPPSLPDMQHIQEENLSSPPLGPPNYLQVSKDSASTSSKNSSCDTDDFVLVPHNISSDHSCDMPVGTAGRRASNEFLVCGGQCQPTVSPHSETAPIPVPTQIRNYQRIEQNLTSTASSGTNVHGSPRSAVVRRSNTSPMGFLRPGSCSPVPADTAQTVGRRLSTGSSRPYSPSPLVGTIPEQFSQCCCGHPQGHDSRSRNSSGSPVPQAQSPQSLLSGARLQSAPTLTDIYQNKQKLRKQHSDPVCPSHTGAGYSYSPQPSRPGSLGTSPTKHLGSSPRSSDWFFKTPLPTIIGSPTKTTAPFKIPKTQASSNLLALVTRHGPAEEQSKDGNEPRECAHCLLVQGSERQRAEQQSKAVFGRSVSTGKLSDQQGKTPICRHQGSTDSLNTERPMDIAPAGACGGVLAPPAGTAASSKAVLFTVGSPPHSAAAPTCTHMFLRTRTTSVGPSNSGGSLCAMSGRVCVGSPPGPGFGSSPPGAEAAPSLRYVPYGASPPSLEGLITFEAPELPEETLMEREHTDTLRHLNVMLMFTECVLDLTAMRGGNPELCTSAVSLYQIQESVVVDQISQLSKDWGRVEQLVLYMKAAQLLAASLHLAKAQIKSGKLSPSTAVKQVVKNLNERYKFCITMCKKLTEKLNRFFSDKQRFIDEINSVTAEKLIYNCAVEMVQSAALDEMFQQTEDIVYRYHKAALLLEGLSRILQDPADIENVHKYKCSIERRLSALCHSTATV
- Protocol Description: KINOMEscan competition binding
- Condition Description: compound 10.0 µM
Entries are grouped by kinase still bound, per cent of control into these classes: low group: < 5%; middle group: ≥ 5% and < 20%; high group: ≥ 20%

1. COc1cc(N2CCN(C)CC2)ccc1Nc1ncc2c(n1)N(C(C)C)c1ccccc1C(=O)N2C    high group
2. CN1C(=O)c2ccccc2N(C)c2nc(Nc3ccc(N4CCC(O)CC4)cc3)ncc21    middle group
3. O=C1NC(=O)/C(=C/c2c[nH]c(=O)c(-c3ccc(N4CCNCC4)nc3)c2)S1    low group
4. Nc1cccc(-c2cc(/C=C3\SC(=O)NC3=O)c[nH]c2=O)c1    high group
5. COc1cc(N2CCN(CCO)CC2)ccc1Nc1ncc2c(n1)N(C1CCCC1)CCC(=O)N2C    low group
6. COc1cc(N2CCC(N3CCN(C)CC3)CC2)ccc1Nc1ncc2c(n1)N(C1CCCC1)C(C)CC(=O)N2C (stereo not drawn)    high group
7. COc1cc(N2CCC(O)CC2)ccc1Nc1ncc2c(n1)N1CCc3cccc(c31)C(=O)N2C    high group
8. N=C1NC(=O)/C(=C/c2c[nH]c(=O)c(-c3ccc(N4CCNCC4)nc3)c2)S1    low group
9. COc1cc(N2CCN(C)CC2)ccc1Nc1ncc2c(n1)N(C)c1sccc1C(=O)N2C    low group
10. NS(=O)(=O)c1ccc(-c2ccc(C=C3C(=O)c4ccccc4C3=O)o2)cc1    high group

Query: Exam item: assign N=C1NC(=O)/C(=C/c2ccc(-c3ccc(F)cc3O)o2)S1 to the correct category.
Result: middle group

---

The compounds listed here are annotated with their kinase still bound, per cent of control.
- System: EGFR (human), P00533 [747-751 del / S ins]
- Sequence (P00533 whole entry, looked up, stated change not applied): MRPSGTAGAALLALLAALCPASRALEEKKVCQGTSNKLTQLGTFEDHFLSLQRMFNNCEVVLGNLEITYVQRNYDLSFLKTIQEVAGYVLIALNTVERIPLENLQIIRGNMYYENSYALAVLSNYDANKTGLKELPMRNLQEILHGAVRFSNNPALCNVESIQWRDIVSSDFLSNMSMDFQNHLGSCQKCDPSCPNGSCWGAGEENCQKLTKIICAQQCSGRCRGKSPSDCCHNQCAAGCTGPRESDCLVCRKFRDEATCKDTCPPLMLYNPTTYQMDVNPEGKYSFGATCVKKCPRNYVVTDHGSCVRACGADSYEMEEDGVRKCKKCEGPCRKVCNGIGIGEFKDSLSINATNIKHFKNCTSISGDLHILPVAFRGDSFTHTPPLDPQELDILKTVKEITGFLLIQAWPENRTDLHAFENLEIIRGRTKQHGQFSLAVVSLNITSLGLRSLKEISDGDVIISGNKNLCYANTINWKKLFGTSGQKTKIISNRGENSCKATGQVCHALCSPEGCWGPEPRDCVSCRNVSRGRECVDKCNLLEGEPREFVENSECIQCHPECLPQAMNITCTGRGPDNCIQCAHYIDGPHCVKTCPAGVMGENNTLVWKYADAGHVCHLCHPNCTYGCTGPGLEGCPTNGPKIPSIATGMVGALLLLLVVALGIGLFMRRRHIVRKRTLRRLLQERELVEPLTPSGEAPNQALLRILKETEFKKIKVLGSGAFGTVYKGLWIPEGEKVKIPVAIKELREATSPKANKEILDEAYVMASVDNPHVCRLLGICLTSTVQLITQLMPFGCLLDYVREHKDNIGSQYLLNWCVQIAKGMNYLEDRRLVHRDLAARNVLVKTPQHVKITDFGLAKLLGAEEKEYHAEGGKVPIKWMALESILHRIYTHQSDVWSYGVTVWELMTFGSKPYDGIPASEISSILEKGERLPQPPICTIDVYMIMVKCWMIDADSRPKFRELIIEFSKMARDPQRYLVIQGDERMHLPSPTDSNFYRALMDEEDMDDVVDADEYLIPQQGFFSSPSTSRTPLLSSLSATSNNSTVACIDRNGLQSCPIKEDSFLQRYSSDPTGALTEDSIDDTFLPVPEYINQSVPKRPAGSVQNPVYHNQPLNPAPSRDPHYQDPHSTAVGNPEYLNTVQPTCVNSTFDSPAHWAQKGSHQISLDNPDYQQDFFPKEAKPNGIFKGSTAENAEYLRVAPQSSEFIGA
- Protocol Description: KINOMEscan competition binding
- Condition Description: compound 10.0 µM
Express it in %; write the number only.

Would you please look over these solved cases?
1) CN1CCN(c2ccc(C(=O)Nc3ncc4c(n3)N(C)c3ccccc3C(=O)N4C)cc2)CC1    86
2) COc1cc(N2CCC(O)CC2)ccc1Nc1ncc2c(n1)N(c1ccccc1)CCC(=O)N2C    12

Query: Provide kinase still bound, per cent of control value for the following compound: N=C1NC(=O)/C(=C/c2ccc(-c3ccccc3O)o2)S1
Result: 31

---

- System Under Test: PRKD1 (human)
- Protocol Description: KINOMEscan competition binding
- Condition Description: compound 10.0 µM
The molecules listed here are annotated with their kinase still bound, per cent of control.
Express it in %; write the number only.

1) COc1cc(N2CCN(C)CC2)ccc1Nc1ncc2c(n1)Nc1ccccc1NC2=O    64
2) COc1cc(N2CCC(N3CCN(C)CC3)CC2)ccc1Nc1ncc2c(n1)N1CCCC1CC(=O)N2C (stereo not given)    19
3) CN1C(=O)c2ccccc2N(C)c2nc(NS(=O)(=O)c3ccc(N)cc3)ncc21    100

Query: Recall the reported kinase still bound, per cent of control of COc1cc(C(=O)NC2CCN(C)CC2)ccc1Nc1ncc2c(n1)N(C1CCCC1)CCC(=O)N2C when tested on PRKD1 (human).
Result: 28

Query: Recall the reported kinase still bound, per cent of control of O=C1NC(=O)/C(=C/c2c[nH]c(=O)c(-c3ccc(N4CCNCC4)nc3)c2)S1 when tested on PRKD1 (human).
Result: 8.2
